Target: interaction between GMPPNP-bound recombinant K-Ras4B G12C mutant protein and cRAF RAS-binding domain (cRAF-RBD) (Homo sapiens, UniProt P01116, G12C)
Construct: His-tag (N)
Sequence (P01116 with tags, fused parts or gaps isoform P01116-2 G12C): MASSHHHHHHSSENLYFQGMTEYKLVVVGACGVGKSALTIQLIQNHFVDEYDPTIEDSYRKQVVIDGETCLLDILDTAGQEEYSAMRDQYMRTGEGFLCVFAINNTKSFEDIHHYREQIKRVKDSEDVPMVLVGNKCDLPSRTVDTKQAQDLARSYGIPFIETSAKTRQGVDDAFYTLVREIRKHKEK
Assay: Inhibitory activity on interaction between KRAS G12C and cRAF (Alpha technology)
Conditions: GMPPNP-bound KRAS G12C incubated with compound 25° C. 1 hour; Table 2-1; read-out: IC50
Protocol: Interaction between recombinant K-Ras4B G12C mutant protein (amino acids 1-169, SEQ ID NO:2) and cRAF RAS-binding domain (cRAF-RBD, amino acids 50-132, Jena Biosciences GmbH) was measured using Alpha technology (PerkinElmer Inc.). Recombinant KRAS G12C protein with an N-terminal His-tag was expressed in E. coli and purified by affinity chromatography. […]
For each record, check the reported IC50: if it is below 30 nM write True, else write False.

Ask: # check: IC50 < 30 nM for COCc1nc2c3c(c(C(F)(F)F)cc2n1C)-c1cccn2c(C(=O)c4cc(F)c(NC(=O)/C=C/CN[C@H]5CCOC5)c(F)c4)cc(c12)C(=O)N(C)C3
Result: False

Ask: Threshold test, IC50 < 30 nM: COCCn1c(C)nc2c3c(c(OC)cc21)-c1cccn2c(C(=O)c4cc(F)c(NC(=O)/C=C/CNC5(C)CC5)c(F)c4)cc(c12)CCN3C (single isomer, unassigned)
Result: True

Ask: Bench note: check whether CO[C@H]1CC[C@H](NC/C=C/C(=O)Nc2ccc(C(=O)c3cc4c5c(cccn35)-c3c(C(F)(F)F)cc5c(nc(C)n5C)c3OCC4)nc2)CC1 shows IC50 below 30 nM
Result: True

Ask: Say whether its IC50 is strictly beneath 30 nM. Entry: CC1Cc2cc(C(=O)c3cc(F)c(NC(=O)/C=C/CNC4(C)COC4)c(F)c3)n3cccc(c23)-c2c(C(F)(F)F)cc3c(ncn3C)c2O1 (single isomer, unassigned) [Example 130-2]
Result: False

Ask: Identify whether the compound CN1CCc2nc(C(=O)c3cc(F)c(NC(=O)/C=C/CNC4(C)CC4)c(F)c3)n3cccc(c23)-c2c(C(F)(F)F)cc3c(ncn3C)c21 (single isomer, unassigned) records IC50 below 30 nM.
Result: False

---
Ask: Determine if COCc1nc2c3c(c(C(F)(F)F)cc2n1C)-c1cccn2c(C(=O)c4cc(F)c(NC(=O)/C=C/CNC5(C)COC5)c(F)c4)cc(c12)CCO3 (single isomer, unassigned) shows IC50 strictly lower than 30 nM.
Result: True

Ask: Dear reviewer, please state whether CCNC/C=C/C(=O)Nc1c(F)cc(C(=O)c2cc3c4c(cccn24)-c2c(C(F)(F)F)cc4c(ncn4C)c2N(C)CC3)cc1F has IC50 strictly beneath 30 nM.
Result: False

Ask: Does this compound meet the criterion IC50 < 30 nM? COCc1nc2c3c(c(OC)cc2n1C)-c1cccn2c(C(=O)c4cc(F)c(NC(=O)/C=C/CN[C@H]5CCOC5)c(F)c4)c(C)c(c12)CCN3C (single isomer, unassigned)
Result: False

Ask: In the record for Cc1cc2c(C)n(C)nc2c2c1-c1cccn3c(C(=O)c4cc(F)c(NC(=O)/C=C/CNC5(C)COC5)c(F)c4)cc(c13)CCN2C (single isomer, unassigned) , is IC50 less than 30 nM?
Result: False
